# System: Aβ40 in conditioned medium of cells stably expressing Amyloid Precursor Protein (APP)
# TEST NAME: In vitro BACE cell-based assay (HEK cell assay, Aβ40 sandwich ELISA)
# CONDITION INFO: Homo sapiens, HEK293; average IC50; read-out: BACE1 cell assay IC50
OBSERVED PROPERTY: IC50 (nM)

Example cases with answers are listed next.
INSERT INTO assay_data (chem_smiles, obs_value) VALUES
  ('C#CCOc1ccc(C(=O)Nc2ccc(F)c([C@@]3(C)N=C(N)[C@@]4(CF)CC[C@@H]3S4(=O)=O)c2)nc1', 4),
  ('COc1cnc(C(=O)Nc2ccc(F)c([C@@]3(CF)N=C(N)[C@]4(C)CC[C@H]3S4(=O)=O)c2)cn1', 95),
  ('CC(C)COc1cnc2c(Nc3ccc(F)c([C@@]4(C)N=C(N)[C@@]5(C)CC[C@@H]4S5(=O)=O)c3)nccc2n1', 164),
  ('Cc1cc(Cl)cnc1C(=O)Nc1ccc(F)c([C@@]2(C)N=C(N)[C@@]3(CF)CC[C@@H]2S3(=O)=O)c1', 5),
  ('C[C@]12CC[C@H]([C@@](C)(c3cc(NC(=O)c4ccc(C#CC5CC5)cn4)ccc3F)N=C1N)S2(=O)=O', 16);

[P] CC#CCOc1cnc2c(Nc3ccc(F)c([C@@]4(C)N=C(N)[C@]5(C)CC[C@H]4S5(=O)=O)c3)nccc2n1
[Q] C[C@]1(c2cc(Nc3nccc4[nH]c(=O)cnc34)ccc2F)N=C(N)[C@@]2(CF)CC[C@@H]1S2(=O)=O
Response body: label of entry with the larger IC50; valid values P , Q . Give the label of your selection.
Q

* * *

# System: Aβ40 in conditioned medium of cells stably expressing Amyloid Precursor Protein (APP)
# TEST NAME: In vitro BACE cell-based assay (HEK cell assay, Aβ40 sandwich ELISA)
# CONDITION INFO: Homo sapiens, HEK293; average IC50; read-out: BACE1 cell assay IC50
OBSERVED PROPERTY: IC50 (nM)

INSERT INTO assay_data (chem_smiles, obs_value) VALUES
  ('Cc1cc(Cl)cnc1C(=O)Nc1ccc(F)c([C@@]2(CF)N=C(N)[C@]3(C)CC[C@H]2S3(=O)=O)c1', 111),
  ('COCCOc1cnc2c(Nc3ccc(F)c([C@@]4(C)N=C(N)[C@@]5(C)CC[C@@H]4S5(=O)=O)c3)nccc2n1', 2),
  ('C[C@]1(c2cc(Nc3ncnc4cc(Br)cnc34)ccc2F)N=C(N)[C@@]2(CF)CC[C@@H]1S2(=O)=O', 36),
  ('COc1cnc2c(Nc3ccc(F)c([C@@]4(C)N=C(N)[C@@]5(CF)CC[C@@H]4S5(=O)=O)c3)nccc2c1', 16.7);

[P] COc1ccc(C(=O)Nc2ccc(F)c([C@@]3(C)N=C(N)[C@@]4(C)CC[C@@H]3S4(=O)=O)c2)c(F)c1
[Q] C[C@]1(c2cc(NC(=O)c3ccc(C(F)(F)F)cc3F)ccc2F)N=C(N)[C@@]2(C)CC[C@@H]1S2(=O)=O
Returns: the label, P or Q , whose recorded IC50 is the lower number. Answer by quoting the chosen item's label.
P
